GI50 values by entry
- System: MOLT-4
- test: NCI tumour cell line growth inhibition, 48 h
Active and inactive are the calls of the source. Rule as the data show it: active = GI50 up to about 1.1 µM and inactive = higher.
parameter-measured: GI50

>  <molecule>
Cc1nnc(N/N=C2/C(=O)Nc3c(Cl)cc(Cl)cc32)n1N

>  <tested-on>
MOLT-4

>  <parameter-measured>
GI50

>  <result>
44.8 µM (inactive)

$$$$
>  <molecule>
COC(=O)C(Cc1nc2ccccc2nc1O)C(NO)C(=O)Nc1c(Cl)cc([N+](=O)[O-])cc1Cl (stereo not given)

>  <tested-on>
MOLT-4

>  <parameter-measured>
GI50

>  <result>
27.9 µM (inactive)

$$$$
>  <molecule>
O=C(O)c1ccc(NC(=O)C2C(=O)C(=O)N(c3ccc(C(=O)O)cc3)C2=O)cc1 (stereo not given)

>  <tested-on>
MOLT-4

>  <parameter-measured>
GI50

>  <result>
> 100 µM (inactive)

$$$$
>  <molecule>
O=C1c2ccccc2C(=O)c2[nH]c(Cc3ccccc3F)nc21

>  <tested-on>
MOLT-4

>  <parameter-measured>
GI50

>  <result>
89.7 µM (inactive)

$$$$
>  <molecule>
O=[N+]([O-])c1ccc(/C=N\N=c2/ccc([N+](=O)[O-])c[nH]2)cc1

>  <tested-on>
MOLT-4

>  <parameter-measured>
GI50

>  <result>
> 100 µM (inactive)

$$$$
>  <molecule>
C[C@H]1[C@H](C)N1CC(O)Cn1ccnc1[N+](=O)[O-] (stereo not given in full)

>  <tested-on>
MOLT-4

>  <parameter-measured>
GI50

>  <result>
> 67.6 µM (inactive)

$$$$
>  <molecule>
Cc1nn(C(=O)c2ccc(Cl)cc2)c2c1C(/C=C/c1ccccc1)SC(=N)N2 (stereo not given)

>  <tested-on>
MOLT-4

>  <parameter-measured>
GI50

>  <result>
> 10 µM (inactive)

$$$$
>  <molecule>
Cc1nn(C(=O)c2ccccc2O)c2c1C(c1ccco1)SC(=N)N2 (stereo not given)

>  <tested-on>
MOLT-4

>  <parameter-measured>
GI50

>  <result>
3.61 µM (inactive)

$$$$
>  <molecule>
Clc1ccc2c(NC3CCC(N4CCCCC4)CC3)ccnc2c1 (stereo not given)

>  <tested-on>
MOLT-4

>  <parameter-measured>
GI50

>  <result>
14.6 µM (inactive)

$$$$
>  <molecule>
C/C(=N\N=C(/[SeH])N1CC2CCC(CC2)C1)c1ccccn1

>  <tested-on>
MOLT-4

>  <parameter-measured>
GI50

>  <result>
0.014 µM (active)

$$$$

Every entry's value here was drawn from ChEMBL document CHEMBL1201862.
